Listed compounds paired with reported pIC50
TEST_SYSTEM: human recombinant HDAC6 (Homo sapiens, UniProt Q9UBN7)
Sequence (Q9UBN7 whole entry): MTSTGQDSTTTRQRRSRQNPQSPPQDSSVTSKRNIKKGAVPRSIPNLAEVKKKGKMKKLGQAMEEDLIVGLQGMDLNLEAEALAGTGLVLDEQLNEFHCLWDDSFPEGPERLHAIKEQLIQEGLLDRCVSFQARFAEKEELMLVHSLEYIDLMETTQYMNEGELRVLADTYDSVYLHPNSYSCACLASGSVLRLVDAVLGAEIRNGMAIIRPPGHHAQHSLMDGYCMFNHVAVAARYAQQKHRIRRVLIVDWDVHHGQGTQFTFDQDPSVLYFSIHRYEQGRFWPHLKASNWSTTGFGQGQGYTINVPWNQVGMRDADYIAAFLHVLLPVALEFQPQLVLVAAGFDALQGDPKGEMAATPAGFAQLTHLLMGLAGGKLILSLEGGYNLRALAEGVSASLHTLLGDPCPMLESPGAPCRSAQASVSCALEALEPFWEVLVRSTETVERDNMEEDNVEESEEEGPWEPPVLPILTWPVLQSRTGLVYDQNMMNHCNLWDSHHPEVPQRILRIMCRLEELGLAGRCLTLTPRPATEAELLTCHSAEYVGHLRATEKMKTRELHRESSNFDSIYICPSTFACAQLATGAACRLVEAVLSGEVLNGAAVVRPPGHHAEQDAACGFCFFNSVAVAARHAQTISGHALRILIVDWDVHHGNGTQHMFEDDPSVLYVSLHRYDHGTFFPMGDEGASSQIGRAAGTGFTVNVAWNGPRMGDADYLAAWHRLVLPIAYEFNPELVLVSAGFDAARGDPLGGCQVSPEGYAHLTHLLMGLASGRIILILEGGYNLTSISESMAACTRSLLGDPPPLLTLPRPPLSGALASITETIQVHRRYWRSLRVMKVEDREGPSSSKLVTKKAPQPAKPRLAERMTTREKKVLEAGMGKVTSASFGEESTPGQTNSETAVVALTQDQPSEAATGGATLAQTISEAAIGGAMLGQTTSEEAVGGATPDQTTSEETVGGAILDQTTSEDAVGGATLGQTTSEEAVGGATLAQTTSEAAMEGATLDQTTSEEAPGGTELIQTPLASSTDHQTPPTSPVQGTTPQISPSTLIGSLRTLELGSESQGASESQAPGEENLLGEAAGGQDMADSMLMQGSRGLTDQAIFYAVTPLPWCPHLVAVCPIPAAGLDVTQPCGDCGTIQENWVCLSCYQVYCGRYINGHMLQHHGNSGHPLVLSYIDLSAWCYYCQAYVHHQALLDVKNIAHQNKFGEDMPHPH
TEST: HDAC6 enzyme activity inhibition assay (HDAC Fluorimetric Drug Discovery Kit)
MEASUREMENT_CONTEXT: same protocol as the HDAC1 enzyme activity test
pIC50: −log10 of the molar value.

| COMPOUND | pIC50 |
| --- | --- |
| O=S(=O)(c1cccnc1)N(Cc1ccc(-c2nnc(C(F)F)o2)cc1)c1ccccc1 [Compound 11152] | 7.24 |
| CS(=O)(=O)N(Cc1ccc(-c2nnc(C(F)(F)F)o2)cc1F)c1ccc(Br)cc1 [Compound 11277] | 6.73 |
| COc1ccccc1N(Cc1ccc(-c2nnc(C(F)F)o2)cc1F)S(C)(=O)=O [Compound 11251] | 7.19 |
| Cc1cccc(N(Cc2ccc(-c3nnc(C(F)F)o3)cn2)S(=O)(=O)C2CCN(C3COC3)CC2)c1 [Compound 11684] | 7.80 |
